molecular target: Gal(a1-4)Gal(b1-3)GlcNAc(b1-2)Man(a1-3)[Gal(a1-4)Gal(b1-3)GlcNAc(b1-2)Man(a1-6)]Man(b1-4)GlcNAc(b1-4)GlcNAc; test: glycan array binding signal (z-score within array); higher = stronger binding; conditions: glycan notation: IUPAC condensed, linker removed
This is one part of a sample in which the strongest signals are shown more often than they occur.
Listing: glycan array binding signal (z-score) of selected binders
Reply briefly: the number, and no unit.

INSERT INTO results (binder, measurement_kind, meas_value) VALUES
  ('LgFlo1 (Saccharomyces pastorianus), B3IUA8 (protein) SGSTQACLPVGSRKNGMNVNFYKYSLQDSTTYSDPQYMAYKYSDTKKLGSVSGQTHLSIYYGPNTAFWNTASWSSDLFGFYTTPTNVTVEMTGYFLPPQTGSYTFKFATVDDSAILSVGGSIAFECCAQEQPPITSTDFTINGIKPWDAATPTDIKGSTYMYAGYYYPIKIVYSNAKALARLPVSVVLPDGTEVNDDFEGYVYSFDDDLSQSNCTIPDPSKHTTS', 'glycan array binding signal (z-score)', 1.89),
  ('GSL-I-B4 (Griffonia simplicifolia) (protein) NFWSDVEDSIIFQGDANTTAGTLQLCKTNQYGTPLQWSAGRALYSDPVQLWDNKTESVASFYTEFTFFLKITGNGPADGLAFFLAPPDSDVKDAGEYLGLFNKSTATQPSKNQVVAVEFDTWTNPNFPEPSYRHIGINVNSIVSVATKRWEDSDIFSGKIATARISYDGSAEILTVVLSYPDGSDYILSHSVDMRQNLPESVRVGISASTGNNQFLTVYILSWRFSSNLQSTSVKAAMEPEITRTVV', 'glycan array binding signal (z-score)', 5.37);

Now for another entry.
Prompt: Please report the recorded glycan array binding signal (z-score) for RVL (Remusatia vivipara), B5LYJ9 (protein) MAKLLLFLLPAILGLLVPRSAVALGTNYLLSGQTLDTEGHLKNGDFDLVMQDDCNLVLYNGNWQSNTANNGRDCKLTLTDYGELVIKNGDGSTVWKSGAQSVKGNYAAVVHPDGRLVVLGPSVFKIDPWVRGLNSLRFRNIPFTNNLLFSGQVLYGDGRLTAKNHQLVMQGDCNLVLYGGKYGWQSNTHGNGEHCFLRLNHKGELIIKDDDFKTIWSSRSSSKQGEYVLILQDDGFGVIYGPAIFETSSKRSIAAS .
Response: 1.75
